System: U251 human glioblastoma cell line
measurementNotes: in vitro FM-HCR assay of MGMT activity (mPlum O^6MeG reporter plasmid)
Assay type: cell-based
condition: MGMT activity (a.u.) in O^6BG divided by DMSO x 100; higher values indicate resistance
Method: The present Example includes, in part, an in vitro fluorescence multiplex host cell reactivation (FM-HCR) assay in which a reporter plasmid with O^6MeG-containing oligonucleotides is used. The oligonucleotides induce transcription errors that lead to expression of fluorescent mPlum protein. […] All transfected cells were analyzed by flow cytometry at 24-hours after transfection. Data was analyzed as previously described in Nagel et al., 2014 PNAS USA 111 (18): E1823-32 and Piett et al., 2021 Nat. […]
Classification field: enter y for Relative MGMT activity (%) values not below 30%, n for values below it.

Please review the following examples before continuing.
{"columns": ["molecule", "classLabel"],
 "data": [
  ["P140R: MGMT polypeptide with mutation P140R (protein) MDKDCEMKRTTLDSPLGKLELSGCEQGLHEIKLLGKGTSAADAVEVPAPAAVLGGPEPLMQCTAWLNAYFHQPEAIEEFPVPALHHPVFQQESFTRQVLWKLLKVVKFGEVISYQQLAALAGNPKAARAVGGAMRGNPVRILIPCHRVVCSSGAVGNYSGGLAVKEWLLAHEGHRLGKPGLGGSSGLAGAWLKGAGATSGSPPAGRN", "y"],
  ["G160A: MGMT polypeptide with mutation G160A (protein) MDKDCEMKRTTLDSPLGKLELSGCEQGLHEIKLLGKGTSAADAVEVPAPAAVLGGPEPLMQCTAWLNAYFHQPEAIEEFPVPALHHPVFQQESFTRQVLWKLLKVVKFGEVISYQQLAALAGNPKAARAVGGAMRGNPVPILIPCHRVVCSSGAVGNYSAGLAVKEWLLAHEGHRLGKPGLGGSSGLAGAWLKGAGATSGSPPAGRN", "n"],
  ["R135T: MGMT polypeptide with mutation R135T (protein) MDKDCEMKRTTLDSPLGKLELSGCEQGLHEIKLLGKGTSAADAVEVPAPAAVLGGPEPLMQCTAWLNAYFHQPEAIEEFPVPALHHPVFQQESFTRQVLWKLLKVVKFGEVISYQQLAALAGNPKAARAVGGAMTGNPVPILIPCHRVVCSSGAVGNYSGGLAVKEWLLAHEGHRLGKPGLGGSSGLAGAWLKGAGATSGSPPAGRN", "n"]
]}

Asked: hey, is Relative MGMT activity (%) for this one >= 30%? G156V: MGMT polypeptide with mutation G156V (protein) MDKDCEMKRTTLDSPLGKLELSGCEQGLHEIKLLGKGTSAADAVEVPAPAAVLGGPEPLMQCTAWLNAYFHQPEAIEEFPVPALHHPVFQQESFTRQVLWKLLKVVKFGEVISYQQLAALAGNPKAARAVGGAMRGNPVPILIPCHRVVCSSGAVVNYSGGLAVKEWLLAHEGHRLGKPGLGGSSGLAGAWLKGAGATSGSPPAGRN
Given back: y

These entries and their values trace back to patent US20250135039A1.
